Molecular target: T1, human NGF (human, UniProt P01138 122-241)
T1 construct: also called human Nerve Growth Factor; hN
T1 chain: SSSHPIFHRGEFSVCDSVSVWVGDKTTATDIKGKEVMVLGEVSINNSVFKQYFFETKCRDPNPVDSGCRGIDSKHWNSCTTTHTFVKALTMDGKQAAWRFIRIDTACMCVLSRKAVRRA
Assay: SPR (Biacore T200), 100 nM mAb on NGF chip, similarity to parent mAb
measure: Percent Similarity Score (KD on hN) (%)
Your answer is read as %, so omit the unit and give the number.

{"binder": "can9L12VL_T26A (antibody, V domains shown) VH: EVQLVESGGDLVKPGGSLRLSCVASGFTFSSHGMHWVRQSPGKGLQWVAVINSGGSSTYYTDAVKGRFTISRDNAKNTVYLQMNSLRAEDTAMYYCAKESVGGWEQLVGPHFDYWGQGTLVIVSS VL: QSVLTQPTSVSGSLGQRVTISCSGSANNIGILGASWYQLFPGKAPKLLVYGNGNRPSGVPDRFSGADSGDSVTLTITGLQAEDEADYYCQSFDTTLGAHVFGGGTHLTVL", "measure": "Percent Similarity Score (KD on hN)", "unit-of-measure": "%", "value-reported": 100}

Please turn your attention to the following entry.
Tell me the measured Percent Similarity Score (KD on hN) of can9L12VH_G26A (antibody, V domains shown) VH: EVQLVESGGDLVKPGGSLRLSCVASAFTFSSHGMHWVRQSPGKGLQWVAVINSGGSSTYYTDAVKGRFTISRDNAKNTVYLQMNSLRAEDTAMYYCAKESVGGWEQLVGPHFDYWGQGTLVIVSS VL: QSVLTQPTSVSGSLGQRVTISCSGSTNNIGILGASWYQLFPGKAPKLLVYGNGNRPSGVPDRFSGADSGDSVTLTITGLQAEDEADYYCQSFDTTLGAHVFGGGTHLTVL , please.
97.4
